Target: CXCR4 (Homo sapiens, UniProt P61073)
Construct: endogenous in cells; host or cells: U87-MG human glioma cells
Sequence (P61073 whole entry): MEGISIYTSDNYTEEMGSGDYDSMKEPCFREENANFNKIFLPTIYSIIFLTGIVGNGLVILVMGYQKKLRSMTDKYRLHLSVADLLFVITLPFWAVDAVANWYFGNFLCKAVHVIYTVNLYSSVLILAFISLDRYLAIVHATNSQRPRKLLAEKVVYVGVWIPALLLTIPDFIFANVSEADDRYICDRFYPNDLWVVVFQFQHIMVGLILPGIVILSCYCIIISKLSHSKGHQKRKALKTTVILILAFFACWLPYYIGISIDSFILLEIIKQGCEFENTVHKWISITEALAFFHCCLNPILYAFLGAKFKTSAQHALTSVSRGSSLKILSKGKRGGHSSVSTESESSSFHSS
Test: CXCL12-induced intracellular calcium mobilisation (calcium flux) assay in U87-MG cells
Type: cell-based
Conditions: U87-MG cells, CXCL12 10 ng/ml; read-out: pIC50 (-log of the IC50 in calcium flux assay) (converted)
Each entry falls into one class according to its IC50; the ranges are Low (below 1000 nM), Mid (1000 nM to below 20000 nM), High (20000 nM or more)

>>> df
                                   molecule  group
0  CSc1nnc(-c2ccc(OCCN(C)C)nc2)o1 [Compound 17]    Mid
1    CSc1nnc(-c2ccc(CO)nc2)o1 [Compound 21]    Mid
2     CSc1nnc(-c2cnc(C)cn2)o1 [Compound 12]   High
3  Cc1nc(C(F)(F)F)ccc1-c1nnc(SCc2ccccc2)o1 [Compound 6]   High

Assign a bin to CSc1nnc(-c2ccc(C)nc2C)o1 [Compound 4]
Mid

Assign a bin to CSc1nnc(-c2cccnc2)o1 [Compound 5]
High

Assign a bin to Cc1nc(C(F)(F)F)ccc1-c1nnc(SC(C)C)o1 [Compound 9]
High

Assign a bin to CSc1nnc(-c2ccc(CN)nc2)o1 [Compound 20]
Low

Assign a bin to COc1ccc(-c2nnc(SC)o2)cn1 [Compound 14]
High
